The reported numbers originate from the supplement of paper PMC11451515.

# System: NOMO1
# procedure_details: cell viability relative to DMSO control; higher = less cytotoxic
# settings: RPMI 5 mM glucose + 10% dialyzed FBS; 48 h; 0.19 µM
Each entry below carries its recorded cell viability.
Please reply with the bare figure in % and do not write the unit itself.

Example molecules with recorded cell viability:
| molecule | cell viability [%] |
| --- | --- |
| C\C1=C(\C=C(C#N)/C(=O)N1)C2=C[N]3C=CN=C3C=C2 | 84.5 |
| O=C1c2c(O)ccc(O)c2C(=O)c2c(NCCNCCO)ccc(NCCNCCO)c21 | 103 |
| CC1(C)O[C@@H]2C[C@H]3[C@@H]4CCC5=CC(=O)C=C[C@]5(C)[C@H]4[C@@H](O)C[C@]3(C)[C@]2(C(=O)CO)O1 | 92.9 |
| CCC(C)(C)c1ccc(CC(C)CN2C[C@@H](C)O[C@@H](C)C2)cc1 (stereo partly specified) | 82 |
| COc1ccc(C(C)=O)c(O)c1 | 129 |

# ---- query molecule ----
Recorded cell viability of CC/1=C(/N2[C@H](SC1)[C@H](NC(=O)[C@H](N)\C3=C\C\C=C/C3)C2=O)C(O)=O , please.
108

====

Each entry below carries its recorded cell viability.
# System: SEM cells
# procedure_details: cell viability relative to DMSO control; higher = less cytotoxic
# settings: RPMI 5 mM glucose + 10% dialyzed FBS; 48 h; 0.00702 µM
Please reply with the bare figure in % and do not write the unit itself.

| compound | assayed_target | cell viability / % |
| --- | --- | --- |
| CCC[C@H]1C[C@H](C(=O)N[C@@H]([C@@H]2O[C@@H](SC)[C@@H](O)[C@@H](O)[C@H]2O)[C@H](C)Cl)N(C)C1 | SEM cells | 94 |
| OC1CCC(Nc2ncc3nc(Nc4c(F)cc(F)cc4F)n([C@@H]4CCOC4)c3n2)CC1 (stereo partly drawn) | SEM cells | 114 |

Recorded cell viability of COc1ncc(-c2ccc3nccc(-c4ccnnc4)c3c2)cc1N[S+](=O)([O-])c1ccc(F)cc1F , please.
67.8

Next up: C[C@]12CCC(=O)C=C1CC[C@@H]1[C@@H]2CC[C@@]2(C)[C@H]1CC[C@]2(C)O
86.9

Next up: S=P(N1CC1)(N1CC1)N1CC1
106

Next up: Cc1c(NC(=O)OC[C@@H]2COCCN2)cn2ncnc(Nc3ccc4c(cnn4Cc4cccc(F)c4)c3)c12
78.1

Next up: O=C(Nc1cc2cc[nH]c2cn1)c1ccccc1
98.7

Next up: COc1cc2ncnc(Nc3ccc(F)c(Cl)c3)c2cc1NC(=O)/C=C/CN1CCCCC1
96.4

====

# Test system: SEM cells
# procedure_details: cell viability relative to DMSO control; higher = less cytotoxic
# settings: HPLM + 10% dialyzed FBS; 48 h; 0.000781 µM
Each entry below carries its recorded cell viability.
Please reply with the bare figure in % and do not write the unit itself.

| record_smiles | assayed_target | measured_metric | unit | reported_value |
| --- | --- | --- | --- | --- |
| CC(C)C(=O)Oc1ccc(CO)cc1[C@H](CCN(C(C)C)C(C)C)c1ccccc1 | SEM cells | cell viability | % | 34.1 |
| O=c1[nH]c2ccccc2n1C1CCN(Cc2ccc(-c3nc4cc5nc[nH]c5cc4nc3-c3ccccc3)cc2)CC1 | SEM cells | cell viability | % | 97.3 |
| S=P(N1CC1)(N1CC1)N1CC1 | SEM cells | cell viability | % | 102 |
| Cc1cn([C@@H]2O[C@H](CO)[C@@H](O)[C@@H]2F)c(=O)[nH]c1=O | SEM cells | cell viability | % | 74.5 |
| CCN1\C=C(\C(O)=O)C(=O)C2=CC=C(C)N=C12 | SEM cells | cell viability | % | 72.7 |
| O=C(O)c1ccc2c(c1)nc(Nc1cccc(Cl)c1)c1ccncc12 | SEM cells | cell viability | % | 103 |
| COc1cc2nccc(Oc3ccc(NC(=O)NC4CC4)c(Cl)c3)c2cc1C(N)=O | SEM cells | cell viability | % | 116 |
| COCCCN1CCC(NC(=O)c2cc(Cl)c(N)c3c2OCC3)CC1 | SEM cells | cell viability | % | 86.8 |
| NC(=O)c1ccc(I)c([N+](=O)[O-])c1 | SEM cells | cell viability | % | 104 |
| Cc1cc2c(F)c(Oc3ncnn4cc(OC[C@@H](C)O)c(C)c34)ccc2[nH]1 | SEM cells | cell viability | % | 107 |

Recorded cell viability of C\C1=C(\C=C(\C#N)C(=O)N1)C2=CC=NC=C2 , please.
82.7

Next up: CNC(=O)c1ccc(N2C(=S)N(c3ccc(C#N)c(C(F)(F)F)c3)C(=O)C23CCC3)cc1F
87.3

Next up: CC(C)(C(=O)NCC(F)(F)C(F)(F)F)C(=O)N[C@@H]1C(=O)Nc2ccccc2-c2ccccc21
99.6

Next up: CN(C)[C@H]\1[C@@H]2C[C@H]3C(=C(O)\[C@]2(O)C(=O)\C(=C1O)C(N)=O)/C(=O)C4=C(O)C=CC=C4[C@@]3(C)O
92.6

Next up: OC1=CC2=C(C(=C1)O)C(=O)\C=C(/O2)C3=CC=CC=C3
89.7

Next up: CN1C[C@H]2c3ccccc3Oc3ccc(Cl)cc3[C@@H]2C1
75.4

Next up: O=C(c1ccc(Nc2nccc(-c3cc4ccccc4s3)n2)cc1)N1CCC(N2CCCC2)CC1
103

Next up: CC(=O)O[C@H]1C[C@@H]2CC[C@@H]3[C@H](CC[C@@]4(C)[C@H]3C[C@H]([N+]3(C)CCCCC3)[C@@H]4OC(C)=O)[C@@]2(C)C[C@@H]1N1CCCCC1
124
